# PROTOCOL SUMMARY: stimulators of insulin release from INS-1E, primary screen, cell-based, 5 mM glucose, NPC library (AID 1117329)
# MEASUREMENT PARAMETERS: rat INS-1E insulin secretion, at 10 µM, hits give high values
Listed compounds paired with reported insulin secretion stimulation
// units = %; emit number, no label

Example cases with answers are listed next.
- COMPOUND: "CC(=O)OCC(=O)[C@@]12OC(C)(C)O[C@@H]1C[C@H]1[C@@H]3C[C@H](F)C4=CC(=O)C=C[C@]4(C)[C@@]3(F)[C@@H](O)C[C@@]12C"
  REPORTED PROPERTY: "insulin secretion stimulation"
  UNIT ABBREV: "%"
  MEASURED VALUE: 0.2
- COMPOUND: "C=C1C(=C/C=C2\\CCC[C@]3(C)[C@@H]([C@H](C)/C=C/[C@@H](O)C4CC4)CC[C@@H]23)C[C@@H](O)C[C@@H]1O"
  REPORTED PROPERTY: "insulin secretion stimulation"
  UNIT ABBREV: "%"
  MEASURED VALUE: 4.15
- COMPOUND: "Nc1nc2ccccc2n1Cc1ccc(F)cc1"
  REPORTED PROPERTY: "insulin secretion stimulation"
  UNIT ABBREV: "%"
  MEASURED VALUE: 0.8
- COMPOUND: "CC1=C(C(=O)O)N2C(=O)[C@@H](NC(=O)[C@H](N)c3ccccc3)[C@H]2SC1"
  REPORTED PROPERTY: "insulin secretion stimulation"
  UNIT ABBREV: "%"
  MEASURED VALUE: -0.9

Which value of insulin secretion stimulation has been reported for C/C(=N\O)c1ccc(OCC(=O)N2CCCCC2)cc1 in the records?
3.05

Another compound to look at: Cc1coc2ccccc2c1=O
-2.4

Would you kindly repeat that for CCCN(CCC)C(=O)C(CCC(=O)OCCCN1CCN(CCOC(=O)Cc2c(C)n(C(=O)c3ccc(Cl)cc3)c3ccc(OC)cc23)CC1)NC(=O)c1ccccc1 (stereo not given) ?
0.4

====

# PROTOCOL SUMMARY: activators of macrophage pro-inflammatory response, cell-based, murine, luminescence (AID 652131)
# MEASUREMENT PARAMETERS: murine macrophage pro-inflammatory reporter, hits give high values
Label Y for high-side z-score (at or above -0.2) and N for low-side z-score (below it).

- SMILES INPUT: "COc1ccc(-c2cc3c(N)ncnc3o2)cc1"
  ASSIGNED LABEL: "Y"
- SMILES INPUT: "COc1cc(C)c(N(C)C(=O)CN(C)C)cc1Nc1nc(Nc2cccc(F)c2C(N)=O)c2cc[nH]c2n1"
  ASSIGNED LABEL: "Y"
- SMILES INPUT: "Fc1cccc(COc2ccc(Nc3ncnc4cc(-c5ccc[nH]5)sc34)cc2Cl)c1"
  ASSIGNED LABEL: "N"
- SMILES INPUT: "Cc1cccc(Oc2nccc(-c3c(-c4ccc(F)cc4)ncn3C3CCNCC3)n2)c1C"
  ASSIGNED LABEL: "Y"
- SMILES INPUT: "Nc1nc(-c2ccc(F)cc2)c(-c2ccc3ncccc3n2)s1"
  ASSIGNED LABEL: "Y"
- SMILES INPUT: "NS(=O)(=O)c1ccc(N=Nc2c(O)[nH]c3ccc(C(=O)NCCCn4ccnc4)cc23)cc1"
  ASSIGNED LABEL: "Y"
- SMILES INPUT: "COc1cc(Nc2nccc(Nc3ccc4c(C)[nH]nc4c3)n2)cc(OC)c1OC"
  ASSIGNED LABEL: "Y"
- SMILES INPUT: "CCCN(CCS(C)(=O)=O)Cc1ccc(-c2ccc3ncnc(Nc4ccc(OCc5cccc(F)c5)c(Cl)c4)c3c2)o1"
  ASSIGNED LABEL: "Y"

Is the recorded value of z-score equal to or greater than -0.2 for this compound? COc1cccc(-n2ncc3c(N/N=C/c4ccc(F)cc4)ncnc32)c1
N

Same thing, different compound: C[C@@H](Oc1cc(-n2cnc3ccc(OC[C@@H](O)CO)cc32)sc1C(N)=O)c1ccccc1Cl
N

====

Property: percent of negative control (+Dex); scope: individual molecules
# PROTOCOL SUMMARY: modulators of glucocorticoid suppression of NF-kB, cell-based, luciferase, IL-1B stimulus, dexamethasone (AID 624486);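 also: 100% = mean signal of vehicle control wells on the plate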
# MEASUREMENT PARAMETERS: NF-kB luciferase reporter, IL-1B + dexamethasone, luminescence; actives lie on both sides, concentration not given here
Respond with the bare value in %.

Illustrative cases are given below, each with its answer.
- MOLECULE: "CS(=O)(=O)N1CCC(Nc2ncc(C(=O)c3c(F)cccc3F)c(N)n2)CC1"
  REPORTED PROPERTY: "percent of negative control (+Dex)"
  MEASURED VALUE: 88.5
- MOLECULE: "Cn1cc(C2=C(c3cn(C)c4c(N)cccc34)C(=O)NC2=O)c2ccccc21"
  REPORTED PROPERTY: "percent of negative control (+Dex)"
  MEASURED VALUE: 108
- MOLECULE: "Cc1nnc(-c2ccc(C)c(-c3ccc(C(=O)NCc4ccc(Cl)cc4)cc3)c2)o1"
  REPORTED PROPERTY: "percent of negative control (+Dex)"
  MEASURED VALUE: 106
- MOLECULE: "COC(=O)c1sc(-n2cnc3cc(OC)c(OC)cc32)cc1OCc1ccccc1C(F)(F)F"
  REPORTED PROPERTY: "percent of negative control (+Dex)"
  MEASURED VALUE: 86
- MOLECULE: "NS(=O)(=O)c1ccc(NC2CC(c3cccc(O)c3)NN2)cc1 (stereo unspecified)"
  REPORTED PROPERTY: "percent of negative control (+Dex)"
  MEASURED VALUE: 81.5
- MOLECULE: "CCc1cccc(NC(=O)Nc2ccc(Oc3ccc4nc(NC(=O)OC)[nH]c4c3)cc2)c1"
  REPORTED PROPERTY: "percent of negative control (+Dex)"
  MEASURED VALUE: 106
- MOLECULE: "Nc1c(C(=O)c2cccc(OCC(O)CO)c2)cnn1-c1ccc(F)cc1 (stereo unspecified)"
  REPORTED PROPERTY: "percent of negative control (+Dex)"
  MEASURED VALUE: 110
- MOLECULE: "O=C1NC(=NCCc2cccc(Cl)c2)SC1=Cc1ccc2ncccc2c1"
  REPORTED PROPERTY: "percent of negative control (+Dex)"
  MEASURED VALUE: 89.5
- MOLECULE: "O=C(Nc1n[nH]c2cc(-c3ccc(F)cc3)ccc12)C1CC1"
  REPORTED PROPERTY: "percent of negative control (+Dex)"
  MEASURED VALUE: 115
- MOLECULE: "Cc1cc(-c2ccco2)cc(C)c1/C=C/c1cncc(-c2nn[nH]n2)c1"
  REPORTED PROPERTY: "percent of negative control (+Dex)"
  MEASURED VALUE: 94

Given the entry Cn1cc(C2=C(c3c4n(c5ccccc35)CCCC4)C(=O)NC2=O)c2ccccc21 , report its measured percent of negative control (+Dex).
100

Try the molecule CC(Cn1ncnn1)Nc1ncc2cc(Oc3ccc(F)cc3F)c(=O)n(C)c2n1 (stereo unspecified)
101

Same question, O=C1NC(=NCc2ccccn2)SC1=Cc1ccc2ncccc2c1 this time
94

One more molecule: Fc1ccc(-c2c(-c3ccncc3)n(CCN3CCOCC3)c3cccnc23)cc1
91.5

Please give the result for O=C1NC(=O)C(c2c[nH]c3ccccc23)=C1c1c[nH]c2ccccc12 too.
98

And what about the molecule Cn1cc(C2=C(c3cn(CCCSC(=N)N)c4ccccc34)C(=O)NC2=O)c2ccccc21 ?
98

Lookup COc1ccc2c(-c3ccnc(Nc4cccc(OC(F)(F)F)c4)n3)cnn2n1
91

Now give it for COc1ccccc1-c1cc(/C=C2\C(=O)Nc3ncc(Br)cc32)cc(Br)c1O too.
96

Input O/N=C1/CCc2cc(-c3nc(C4CCNCC4)[nH]c3-c3ccncc3)ccc21
128

Likewise for CN(C)CCNC(=O)Nc1ccc(N(C)c2ccnc(Nc3ccc(CS(C)(=O)=O)cc3)n2)cc1 ?
101

Subsequent entry: O=C1NC(=O)C(N2CCc3ccccc32)=C1c1ccc(Cl)cc1
74

====

# PROTOCOL SUMMARY: Cy5 fluorescence quenching or enhancement artefacts, artefact control for HCV NS3 helicase inhibitor project, biochemical, LOPAC1280 (AID 687037)
# MEASUREMENT PARAMETERS: Cy5-DNA-NS3h complex fluorescence interference counterscreen
Active and inactive are the calls of the source. How the calls were made is not given here.
Reported fluorescence ratio (interference) is given for each of the following molecules.

Examples with answers:
- MOLECULE: "NNCCc1ccccc1"
  fluorescence ratio (interference): "0.9 (inactive)"
- MOLECULE: "c1ccc([C@H]2CN3CCSC3=N2)cc1"
  fluorescence ratio (interference): "1 (inactive)"
- MOLECULE: "CN(C)CCC=C1c2ccccc2CCc2ccccc21"
  fluorescence ratio (interference): "0.9 (inactive)"

fluorescence ratio (interference) for Nc1c2c(nc3ccccc13)CCCC2 ?
1 (inactive)

Next molecule up: Cc1ccccc1C(OCCN(C)C)c1ccccc1 (stereo not given)
0.9 (inactive)

Param item: CSc1ccc2c(c1)N(CCC1CCCCN1C)c1ccccc1S2 (stereo not given)
0.9 (inactive)

Also CC(COc1ccccc1)N(CCCl)Cc1ccccc1 (stereo not given) , if possible.
1 (inactive)

Same read-out for NCCc1ccc(O)c(O)c1 ?
1 (inactive)

Queued: CN1CCN(CCCN2c3ccccc3Sc3ccc(C(F)(F)F)cc32)CC1
0.9 (inactive)

Record: Cn1cnc([N+](=O)[O-])c1Sc1ncnc2nc[nH]c12
1 (inactive)

Then O=C(c1ccccc1)c1ccc2n1CCC2C(=O)O (stereo not given) ?
1 (inactive)

Also check CC(C)[N+](C)(CCOC(=O)C1c2ccccc2Oc2ccccc21)C(C)C
1 (inactive)

Ok, now CC1=C(/C=C/C(C)=C/C=C/C(C)=C/C(=O)O)C(C)(C)CCC1
0.9 (inactive)

Further, for CN(C)CCOC(C)(c1ccccc1)c1ccccn1 (stereo not given) ?
1.1 (inactive)

Same lookup for COc1ccccc1OCCNCC(O)COc1cccc2[nH]c3ccccc3c12 (stereo not given) , please.
1 (inactive)

And the next one, NC(=O)N1c2ccccc2C=Cc2ccccc21 ?
1 (inactive)

And then CCN(CC)CC(=O)Nc1c(C)cccc1C , what is it?
1 (inactive)

Can you check Nc1nc2ccc(OC(F)(F)F)cc2s1 next?
0.9 (inactive)

And then COc1ccc(Cl)cc1C(=O)NCCc1ccc(S(=O)(=O)NC(=O)NC2CCCCC2)cc1 , what is it?
1 (inactive)
